TEST SYSTEM: PTPN3, P26045
Sequence (P26045 505-587): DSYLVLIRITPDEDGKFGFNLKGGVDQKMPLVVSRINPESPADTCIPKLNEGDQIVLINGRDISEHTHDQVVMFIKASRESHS
TEST NAME: holdup assay
Set-up: key: below the threshold = too weak to quantify, mostly under pKd 3.1 to 4
COND: plain residues with an end cap or a label only (N-terminal biotin on a linker: ado-ado)
Label -1 if pKd falls below 4; label 1 in every other case.

Answered examples (4):
TGLWKHETTV [ADGRA3, Q8IWK6]    1
QSGLYESEEL [MYOT, Q9UBF9]    1
PSHPRLQTHV [KIRREL2, Q6UWL6]    1
PSVGSKKTVL [REELD1, A0A1B0GV85]    -1

## Task Identify whether the reported pKd of the following binder is 4 or greater: NISYRRESAI [KCNJ4, P48050]
## Result 1

## Task Then what about the binder AAVENKVTDL [PLXNB1, O43157] ?
## Result 1

## Task Field entry: DPAESMESLV [PTPRG, P23470]
## Result 1

## Task Would you mind doing AEASVACSLC [PTGIR, P43119] as well?
## Result -1

## Task Now give it for KKMLQRRTLL [OR8G1, Q15617] too.
## Result -1

## Task Field entry: LESTTVGTSV [KARS1, Q15046]
## Result 1

## Task Next: GIKKITSTAL [RPS6KA3, P51812]
## Result 1

## Task Continue with EIPAQSPTCV [FZD10, Q9ULW2]
## Result -1

## Task And the next one, VLYPREGTEV [FOXI1, Q12951] ?
## Result 1

## Task Follow-up item: TNSRHGETTV [FZD2, Q14332]
## Result 1

## Task Next up: EDPRVEVTQF [SLC22A9, Q8IVM8]
## Result 1

## Task What do we get for RSSGGDDFWF [KCNV1, Q6PIU1] ?
## Result 1
